Data origin, for the record: patent US20200199102A1

system: Cyclophilin A (Homo sapiens)
Construct: made in house
Sequence (P62937 whole entry, species assumed): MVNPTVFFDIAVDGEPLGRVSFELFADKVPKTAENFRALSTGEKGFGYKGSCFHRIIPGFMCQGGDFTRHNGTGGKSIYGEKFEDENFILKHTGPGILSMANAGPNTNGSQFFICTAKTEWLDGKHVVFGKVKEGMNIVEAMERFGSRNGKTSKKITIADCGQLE
procedureText: AlphaLISA inhibition of binding of biotinylated Cyclosporin A to FLAG tagged Cyclophilin A
conditionDetails: test concentration not given
Where a SMILES comes first, the peptide text is derived from it. [ ]: non-standard residue; d: D form. MeBmt = C/C=C/C[C@@H](C)[C@@H](O)[C@H](NC)C(=O)O; NMeY = CN[C@@H](Cc1ccc(O)cc1)C(=O)O; NMeL = CN[C@@H](CC(C)C)C(=O)O; dNMeV = CN[C@@H](C(=O)O)C(C)C; NMeV = CN[C@H](C(=O)O)C(C)C; NMeA = CN[C@@H](C)C(=O)O; Abu = CC[C@H](N)C(=O)O; Sar = CNCC(=O)O
Overview of recorded % inhibition of CsA binding to Cyclophilin A for various compounds
Note: unit % is implicit; provide only the numeric part.

Sample answers from the record:
C/C=C/C[C@@H](C)[C@@H](O)[C@H]1C(=O)N[C@@H](CC)C(=O)N(C)CC(=O)N(C)[C@H](C(C)C)C(=O)N[C@@H](C(C)C)C(=O)N(C)[C@@H](CC(C)C)C(=O)N[C@@H](CC)C(=O)N[C@H](C)C(=O)N(C)[C@@H](CC(C)C)C(=O)N(C)[C@@H](CC(C)C)C(=O)N(C)[C@@H](C(C)C)C(=O)N1C [Compound C103] (cyclo([Abu][Sar][dNMeV]V[NMeL][Abu][dA][NMeL][NMeL][NMeV][MeBmt])) | 86.35
C/C=C/C[C@@H](C)[C@@H](O)[C@H]1C(=O)N[C@@H](CC)C(=O)N(C)CC(=O)N(C)CC(=O)N[C@@H](C(C)C)C(=O)N(C)CC(=O)N[C@@H](C)C(=O)N[C@H](C)C(=O)N(C)[C@@H](CC(C)C)C(=O)N(C)[C@@H](CC(C)C)C(=O)N(C)[C@@H](C(C)C)C(=O)N1C [Compound C28] (cyclo([MeBmt][Abu][Sar][Sar]V[Sar]A[dA][NMeL][NMeL][NMeV])) | 98.94

Please look at the following compound next.
Q) If you can, please state the reported % inhibition of CsA binding to Cyclophilin A value of C/C=C/C[C@@H](C)[C@@H](O)[C@H]1C(=O)N[C@@H](CC)C(=O)N(C)CC(=O)N(C)[C@@H](Cc2ccc(O)cc2)C(=O)N[C@@H](C(C)C)C(=O)N(C)[C@@H](C)C(=O)N[C@@H](CC(C)C)C(=O)N[C@H](C)C(=O)N(C)[C@@H](CC(C)C)C(=O)N(C)[C@@H](CC(C)C)C(=O)N(C)[C@@H](C(C)C)C(=O)N1C [Compound C88] (cyclo([MeBmt][Abu][Sar][NMeY]V[NMeA]L[dA][NMeL][NMeL][NMeV])) .
A) 94.06
